ASSAY_REMARKS: Rapamycin coating affinity testing: distribution between solid and liquid phases with surfactant in water (UV-Vis)
Assay type: physicochemical
CONDITION_LABEL: 1:1 Surfactant to Rapa (w/w), 10x dilution in water
OBSERVATION_TYPE: Sediment wt (mg)
The answer is to be given in mg; state only the numeric part.

# annotated cases, reported Sediment wt shown
MOLECULE	OBSERVATION_TYPE	MEASURED_NUMBER
CCCC[N+](CCCC)(CCCC)CCCC.[I-] [Tetrabutylammonium iodide]	Sediment wt	2.1
CCCCCCCCCCCC[N+](CCCCCCCCCCCC)(CCCCCCCCCCCC)CCCCCCCCCCCC.[Br-] [Tetradodecylammoniumbromid, Tetradodecylammonium bromide]	Sediment wt	6.31
CCCCCCCCCCCC[N+](C)(C)CCCCCCCCCCCC.[Br-] [DMAB, didodecyldimethylammonium bromide]	Sediment wt	2.2
CCCCCCCCCCCCCCCC[N+](C)(C)CC.[Br-] [Ethylhexadecyldimethylammonium Bromide]	Sediment wt	3.85
CCCCCCCCCCCCCC[N+](C)(C)CCCCCCCCCCCCCC.[Br-] [Dimethylditetradecylammonium bromide, Dimethylditetradecyl Ammonium bromide]	Sediment wt	2.28

Attention now turns to another entry.
Incoming: Param item = CCCCCCCCCCCC[N+](C)(C)C.[Br-] [Dodecyltrimethylammonium Bromide, Dodecyltrimethyl Ammonium Bromide] ; retrieve measured Sediment wt.
Outgoing: 1.99

* * *

Overview of reported ratio super/sed across a group of compounds:
ASSAY_REMARKS: Rapamycin coating affinity testing: distribution between solid and liquid phases with surfactant in water (UV-Vis)
Assay type: physicochemical
CONDITION_LABEL: 10:1 Surfactant to Rapa, 6x dilution
Respond with the number and no other words.

Incoming: Param item = CCCCCCCCCCCC[N+](CCCCCCCCCCCC)(CCCCCCCCCCCC)CCCCCCCCCCCC.[Br-] [Tetradodecylammoniumbromid, Tetradodecylammonium bromide] ; retrieve measured ratio super/sed.
Outgoing: 0.31

Incoming: Param item = CCCCCCCCCCCCCC[N+](C)(C)CCCCCCCCCCCCCC.[Br-] [Dimethylditetradecylammonium bromide, Dimethylditetradecyl Ammonium bromide] ; retrieve measured ratio super/sed.
Outgoing: 1.42

Incoming: Param item = CCCCCCCCCCCCCCCC[N+](C)(C)CC.[Br-] [Ethylhexadecyldimethylammonium Bromide] ; retrieve measured ratio super/sed.
Outgoing: 31.50

Incoming: Param item = CCCCCCCCCCCC[N+](C)(C)CCCCCCCCCCCC.[Br-] [DMAB, didodecyldimethylammonium bromide] ; retrieve measured ratio super/sed.
Outgoing: 0.83

Incoming: Param item = CCCC[N+](CCCC)(CCCC)CCCC.[I-] [Tetrabutylammonium iodide] ; retrieve measured ratio super/sed.
Outgoing: 0.39

Incoming: Param item = CCCCCCCCCCCC[N+](C)(C)C.[Br-] [Dodecyltrimethylammonium Bromide, Dodecyltrimethyl Ammonium Bromide] ; retrieve measured ratio super/sed.
Outgoing: 0.65

* * *

ASSAY_REMARKS: Sirolimus concentration in rabbit blood after inflation of two coated balloons per animal
Assay type: in vivo
CONDITION_LABEL: rabbit, blood, other: coated balloon catheters inflated in iliac arteries, rabbit blood, 0 Hr, two coated balloons per animal; single animals and Average; read-out: Post-Inflation Conc.
OBSERVATION_TYPE: concentration at 0 h

Incoming: Param item = CO[C@H]1C[C@@H]2CC[C@@H](C)[C@@](O)(O2)C(=O)C(=O)N2CCCC[C@H]2C(=O)O[C@H]([C@H](C)C[C@@H]2CC[C@@H](O)[C@H](OC)C2)CC(=O)[C@H](C)/C=C(\C)[C@@H](O)[C@@H](OC)C(=O)[C@H](C)C[C@H](C)/C=C/C=C/C=C/1C ; retrieve measured concentration at 0 h.
Outgoing: 8.35 ng/mL
